B1: ARL6IP1 (parent)
chain: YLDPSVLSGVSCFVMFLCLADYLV

Variants of: B1
Test: protein stability index of a GFP-peptide fusion (GPS, HEK-293T) (PSI 1-6); higher = more stable;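 note: lentivirally expressed fusions sorted by FACS into six bins by GFP to DsRed ratio, PSI derived from sequencing read proportions per bin multiplied by bin number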
Conditions: c terminus: a fixed tail appended
MEASURED_QUANTITY: protein stability index
Give a plain numeric answer without units written out.

# count of solved cases: 5
{"columns": ["SEQUENCE_CHAIN", "protein stability index"],
 "data": [
  ["YLDPSVLMGVSCFVMFLCLADYLV", 2.26],
  ["YLDPSVLSGVSCFVMFLCLADYTV", 3.08],
  ["YLDPSVLSGVSCFVMFLCLTDYLV", 4.15],
  ["CLDPSVLSGVSCFVMFLCLADYLV", 3.1],
  ["YLDPSVLSGVSCFVMFLQLADYLV", 2.01]
]}

Consider YLDPSVLSGVSCFVMFLCLAGYLV . Its measured protein stability index is 3.14

For record YLRPSVLSGVSCFVMFLCLADYLV the listed protein stability index is 3.64

Kindly note the recorded protein stability index for ILDPSVLSGVSCFVMFLCLADYLV , which is 2.63

Measured protein stability index, YLDPSVLSGVSCFVMFLCLATYLV : 3.76
